# study-system: hNTS1 receptor (Homo sapiens)
# Construct: membranes prepared from them
# measurement-description: Competitive radioligand binding assay on the hNTS1 receptor
# condition-set: displacement of 125I-[Tyr3]-NT, membranes of CHO-K1 cells expressing hNTS1; read-out: IC50 NTS1
Where a SMILES comes first, the peptide text is derived from it. Bridges are numbered along the chain shown (N, C = ends). [ ]: non-standard residue; d: D form. dAllylGly = C=CC[C@@H](N)C(=O)O; AllylGly = C=CC[C@H](N)C(=O)O; Nle = CCCC[C@H](N)C(=O)O; Dap = NC[C@H](N)C(=O)O
Documented IC50 across a set of compounds

Solved entries:
compound: CC(C)C[C@H](NC(=O)[C@H](Cc1ccc(O)cc1)NC(=O)[C@H]1CC=CC[C@@H](N)C(=O)N[C@@H](CCCCN)C(=O)N[C@@H](CCCCN)C(=O)N1)C(=O)O [compound 42, c[G*(All)KKG*(All)]YL] (H-[dAllylGly]KK[dAllylGly]YL-OH; staple 1-4)
IC50: > 100 µM
//
compound: CC(C)C[C@H](NC(=O)[C@H](Cc1ccc(O)cc1)NC(=O)[C@@H]1CCCC[C@H](N)C(=O)N[C@@H](CCCCN)C(=O)N[C@@H](CCCCN)C(=O)N1)C(=O)O [compound 47, Dihydro-c[G(All)KKG(All)]YL]
IC50: > 100 µM

Enquiry: Look up IC50: CCCC[C@@H]1NC(=O)[C@@H](N)CC=CC[C@@H](C(=O)N[C@@H](Cc2ccc(O)cc2)C(=O)N[C@@H](CC(C)C)C(=O)O)NC(=O)[C@H](CCCCN)NC1=O [compound 85, c[G(All)NleKG(All)]YL] (H-[AllylGly][Nle]K[AllylGly]YL-OH; staple 1-4)
Return: > 100 µM

Enquiry: Can you check CC(C)C[C@H](NC(=O)[C@H](Cc1ccc(O)cc1)NC(=O)[C@@H]1CC=CC[C@H](N)C(=O)N[C@@H](CCCCN)C(=O)N[C@@H](CN)C(=O)N1)C(=O)O [compound 53, c[G(All)KDapG(All)]YL] (H-[AllylGly]K[Dap][AllylGly]YL-OH; staple 1-4) next?
Return: > 100 µM

Enquiry: Thanks! And CC1(C(=O)N[C@@H](Cc2ccc(Br)cc2)C(=O)N[C@@H](CC2CCCC2)C(=O)O)CCCC=CCCC(=O)N[C@@H](CCCCN)C(=O)N[C@@H](CCCCN)C(=O)N1 (stereo partly drawn) [compound 137] ?
Return: > 100 µM

Enquiry: // next record CC(C)C[C@H](NC(=O)[C@H](Cc1ccc(O)cc1)NC(=O)[C@@H]1CC=CC[C@H](N)C(=O)N[C@@H](CN)C(=O)N[C@@H](CCCCN)C(=O)N1)C(=O)O [compound 81, c[G(All)DapKG(All)]YL] (H-[AllylGly][Dap]K[AllylGly]YL-OH; staple 1-4)
Return: > 100 µM

----------
IC50 values for the compounds below.
# study-system: hNTS1 receptor (Homo sapiens, UniProt P30989)
# Construct: membranes prepared from them
# Sequence (P30989 whole entry): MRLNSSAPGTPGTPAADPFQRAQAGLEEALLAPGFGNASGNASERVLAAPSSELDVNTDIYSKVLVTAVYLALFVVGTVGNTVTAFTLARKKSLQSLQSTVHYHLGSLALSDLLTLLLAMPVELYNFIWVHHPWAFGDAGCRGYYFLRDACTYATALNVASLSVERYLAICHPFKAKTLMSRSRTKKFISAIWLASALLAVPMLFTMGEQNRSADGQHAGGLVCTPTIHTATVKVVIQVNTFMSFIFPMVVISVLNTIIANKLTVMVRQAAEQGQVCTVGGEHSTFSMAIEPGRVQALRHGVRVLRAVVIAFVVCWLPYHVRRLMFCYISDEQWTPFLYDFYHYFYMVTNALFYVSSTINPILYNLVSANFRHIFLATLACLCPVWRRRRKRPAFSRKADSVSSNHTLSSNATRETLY
# measurement-description: Competitive radioligand binding assay on the hNTS1 receptor
# condition-set: displacement of 125I-[Tyr3]-NT, membranes of CHO-K1 cells expressing hNTS1; read-out: IC50 NTS1
Where a SMILES comes first, the peptide text is derived from it. Bridges are numbered along the chain shown (N, C = ends). [ ]: non-standard residue; d: D form. Phe(4-Cl) = N[C@@H](Cc1ccc(Cl)cc1)C(=O)O; 2Nal = N[C@@H](Cc1ccc2ccccc2c1)C(=O)O; Hpg = N[C@H](C(=O)O)c1ccc(O)cc1; AllylGly = C=CC[C@H](N)C(=O)O; Dab = NCC[C@H](N)C(=O)O

compound: COc1ccc(C[C@H](NC(=O)[C@@H]2CC=CC[C@H](N)C(=O)N[C@@H](CCCCN)C(=O)N[C@@H](CCCCN)C(=O)N2)C(=O)N[C@@H](CC(C)C)C(=O)O)cc1 [compound 75, c[G(All)KKG(All)]Y(OMe)L] (H-[AllylGly]KK[AllylGly]Y(Me)L-OH; staple 1-4)
study-system: hNTS1 receptor (Homo sapiens, UniProt P30989)
IC50: > 100 µM

compound: CC(C)C[C@H](NC(=O)[C@H](Cc1ccc(O)cc1)NC(=O)[C@@H]1CC=CC[C@H](N)C(=O)N[C@@H](CCCCN)C(=O)N[C@@H](CCN)C(=O)N1)C(=O)O [compound 52, c[G(All)KDabG(All)]YL] (H-[AllylGly]K[Dab][AllylGly]YL-OH; staple 1-4)
study-system: hNTS1 receptor (Homo sapiens, UniProt P30989)
IC50: > 100 µM

Enquiry: Request the reported IC50 associated with CC(C)C[C@H](NC(=O)[C@H](Cc1ccc(O)cc1)NC(=O)[C@@H]1CCC(=O)NCCCC[C@H](N)C(=O)N[C@@H](CCCCN)C(=O)N[C@@H](CCCCN)C(=O)N1)C(=O)O [compound 101, c[KKKE]YL] (H-KKKEYL-OH; lactam 1-4)
Return: > 100 µM

Enquiry: CC(C)C[C@H](NC(=O)[C@@H](NC(=O)[C@@H]1CC=CC[C@H](N)C(=O)N[C@@H](CCCCN)C(=O)N[C@@H](CCCCN)C(=O)N1)c1ccc(O)cc1)C(=O)O [compound 125] (H-[AllylGly]KK[AllylGly][Hpg]L-OH; staple 1-4) ?
Return: > 100 µM

Enquiry: Thanks! And CC(C)C[C@H](NC(=O)[C@H](Cc1ccc2ccccc2c1)NC(=O)[C@@H]1CC=CC[C@H](N)C(=O)N[C@@H](CCCCN)C(=O)N[C@@H](CCCCN)C(=O)N1)C(=O)O [compound 112, c[G(All)KKG(All)]A(naphtyl)L] (H-[AllylGly]KK[AllylGly][2Nal]L-OH; staple 1-4) ?
Return: > 100 µM

Enquiry: Here is the next compound: CC(C)C[C@H](NC(=O)[C@H](Cc1ccc(O)cc1)NC(=O)[C@@H]1CC=CC[C@H](N)C(=O)N[C@@H](CCCCN)C(=O)N[C@H](CCCCN)C(=O)N1)C(=O)O [compound 54, c[G(All)KK*G(All)]YL] (H-[AllylGly]K[dK][AllylGly]YL-OH; staple 1-4)
Return: > 100 µM

Enquiry: Field entry: CC(C)C[C@H](NC(=O)[C@H](Cc1ccc(Cl)cc1)NC(=O)[C@@H]1CC=CC[C@H](N)C(=O)N[C@@H](CCCCN)C(=O)N[C@@H](CCCCN)C(=O)N1)C(=O)O [compound 114, c[G(All)KKG(All)]F(4-chloro)L] (H-[AllylGly]KK[AllylGly][Phe(4-Cl)]L-OH; staple 1-4)
Return: > 100 µM

----------
# study-system: hNTS2 receptor (Homo sapiens, UniProt O95665)
# Construct: membranes prepared from them
# Sequence (O95665 whole entry): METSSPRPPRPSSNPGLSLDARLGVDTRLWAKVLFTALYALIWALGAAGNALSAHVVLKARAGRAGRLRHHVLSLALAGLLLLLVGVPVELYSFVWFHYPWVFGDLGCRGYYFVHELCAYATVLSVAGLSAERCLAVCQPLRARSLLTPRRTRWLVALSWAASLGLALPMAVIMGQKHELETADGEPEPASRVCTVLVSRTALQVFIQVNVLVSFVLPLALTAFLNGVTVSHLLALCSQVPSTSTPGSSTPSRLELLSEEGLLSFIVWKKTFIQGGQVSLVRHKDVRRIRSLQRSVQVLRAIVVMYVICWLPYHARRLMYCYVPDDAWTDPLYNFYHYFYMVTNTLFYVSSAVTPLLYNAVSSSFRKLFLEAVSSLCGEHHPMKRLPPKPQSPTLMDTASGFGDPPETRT
# measurement-description: Competitive radioligand binding assay on the hNTS2 receptor
# condition-set: displacement of 125I-[Tyr3]-NT, membranes of 1321N1 cells expressing hNTS2; read-out: IC50 NTS2 (converted)
# Description: CHO-K1 (Chinese Hamster Ovary) cells stably expressing hNTS1 and 1321N1 cells stably expressing hNTS2 (ES-690-C and ES-691-C from PerkinElmer, Montréal, Canada) were cultured respectively in Ham's F12 and in DMEM culture media. […] The cells expressing hNTS1 were frozen when they reached 80% confluency. […] Glass filters were then counted using a γ-counter (2470 Wizard2, PerkinElmer, Mississauga, Ontario, Canada). […]
Where a SMILES comes first, the peptide text is derived from it. Bridges are numbered along the chain shown (N, C = ends). [ ]: non-standard residue; d: D form. Phe(3-Cl) = N[C@@H](Cc1cccc(Cl)c1)C(=O)O; Hpg = N[C@H](C(=O)O)c1ccc(O)cc1; AllylGly = C=CC[C@H](N)C(=O)O; Aic = NC1(C(=O)O)Cc2ccccc2C1
measured-parameter: IC50 (nM)

Solved cases below.
compound: CC(C)C[C@H](NC(=O)C1(NC(=O)[C@@H]2CC=CC[C@H](N)C(=O)N[C@@H](CCCCN)C(=O)N[C@@H](CCCCN)C(=O)N2)Cc2ccccc2C1)C(=O)O [compound 164, c[G(All)KKG(All)]G(indanyl)L] (H-[AllylGly]KK[AllylGly][Aic]L-OH; staple 1-4)
IC50, nM: 10000
//
compound: CC(C)C[C@H](NC(=O)[C@H](Cc1cccc(Cl)c1)NC(=O)[C@@H]1CC=CC[C@H](N)C(=O)N[C@@H](CCCCN)C(=O)N[C@@H](CCCCN)C(=O)N1)C(=O)O [compound 113, c[G(All)KKG(All)]F(3-chloro)L] (H-[AllylGly]KK[AllylGly][Phe(3-Cl)]L-OH; staple 1-4)
IC50, nM: 48

a = CC(C)C[C@H](NC(=O)[C@@H](NC(=O)[C@@H]1CC=CC[C@H](N)C(=O)N[C@@H](CCCCN)C(=O)N[C@@H](CCCCN)C(=O)N1)c1ccc(O)cc1)C(=O)O [compound 125] (H-[AllylGly]KK[AllylGly][Hpg]L-OH; staple 1-4)
b = CC(C)C[C@H](NC(=O)[C@H](CCCCN)NC(=O)[C@@H]1CC=CC[C@H](N)C(=O)N[C@@H](CCCCN)C(=O)N[C@@H](CCCCN)C(=O)N1)C(=O)O [compound 17, c[G(All)KKG(All)]KL] (H-[AllylGly]KK[AllylGly]KL-OH; staple 1-4)
Enquiry: Would you let me know which has the greater IC50 value, a or b ? The response must carry the label of the picked entry.
Return: a
